// provenance: the supplement of paper PMC11732987

- assayed system: USP24 (UniProt Q9UPU5)
- Sequence (Q9UPU5 whole entry, the tested form may be a part): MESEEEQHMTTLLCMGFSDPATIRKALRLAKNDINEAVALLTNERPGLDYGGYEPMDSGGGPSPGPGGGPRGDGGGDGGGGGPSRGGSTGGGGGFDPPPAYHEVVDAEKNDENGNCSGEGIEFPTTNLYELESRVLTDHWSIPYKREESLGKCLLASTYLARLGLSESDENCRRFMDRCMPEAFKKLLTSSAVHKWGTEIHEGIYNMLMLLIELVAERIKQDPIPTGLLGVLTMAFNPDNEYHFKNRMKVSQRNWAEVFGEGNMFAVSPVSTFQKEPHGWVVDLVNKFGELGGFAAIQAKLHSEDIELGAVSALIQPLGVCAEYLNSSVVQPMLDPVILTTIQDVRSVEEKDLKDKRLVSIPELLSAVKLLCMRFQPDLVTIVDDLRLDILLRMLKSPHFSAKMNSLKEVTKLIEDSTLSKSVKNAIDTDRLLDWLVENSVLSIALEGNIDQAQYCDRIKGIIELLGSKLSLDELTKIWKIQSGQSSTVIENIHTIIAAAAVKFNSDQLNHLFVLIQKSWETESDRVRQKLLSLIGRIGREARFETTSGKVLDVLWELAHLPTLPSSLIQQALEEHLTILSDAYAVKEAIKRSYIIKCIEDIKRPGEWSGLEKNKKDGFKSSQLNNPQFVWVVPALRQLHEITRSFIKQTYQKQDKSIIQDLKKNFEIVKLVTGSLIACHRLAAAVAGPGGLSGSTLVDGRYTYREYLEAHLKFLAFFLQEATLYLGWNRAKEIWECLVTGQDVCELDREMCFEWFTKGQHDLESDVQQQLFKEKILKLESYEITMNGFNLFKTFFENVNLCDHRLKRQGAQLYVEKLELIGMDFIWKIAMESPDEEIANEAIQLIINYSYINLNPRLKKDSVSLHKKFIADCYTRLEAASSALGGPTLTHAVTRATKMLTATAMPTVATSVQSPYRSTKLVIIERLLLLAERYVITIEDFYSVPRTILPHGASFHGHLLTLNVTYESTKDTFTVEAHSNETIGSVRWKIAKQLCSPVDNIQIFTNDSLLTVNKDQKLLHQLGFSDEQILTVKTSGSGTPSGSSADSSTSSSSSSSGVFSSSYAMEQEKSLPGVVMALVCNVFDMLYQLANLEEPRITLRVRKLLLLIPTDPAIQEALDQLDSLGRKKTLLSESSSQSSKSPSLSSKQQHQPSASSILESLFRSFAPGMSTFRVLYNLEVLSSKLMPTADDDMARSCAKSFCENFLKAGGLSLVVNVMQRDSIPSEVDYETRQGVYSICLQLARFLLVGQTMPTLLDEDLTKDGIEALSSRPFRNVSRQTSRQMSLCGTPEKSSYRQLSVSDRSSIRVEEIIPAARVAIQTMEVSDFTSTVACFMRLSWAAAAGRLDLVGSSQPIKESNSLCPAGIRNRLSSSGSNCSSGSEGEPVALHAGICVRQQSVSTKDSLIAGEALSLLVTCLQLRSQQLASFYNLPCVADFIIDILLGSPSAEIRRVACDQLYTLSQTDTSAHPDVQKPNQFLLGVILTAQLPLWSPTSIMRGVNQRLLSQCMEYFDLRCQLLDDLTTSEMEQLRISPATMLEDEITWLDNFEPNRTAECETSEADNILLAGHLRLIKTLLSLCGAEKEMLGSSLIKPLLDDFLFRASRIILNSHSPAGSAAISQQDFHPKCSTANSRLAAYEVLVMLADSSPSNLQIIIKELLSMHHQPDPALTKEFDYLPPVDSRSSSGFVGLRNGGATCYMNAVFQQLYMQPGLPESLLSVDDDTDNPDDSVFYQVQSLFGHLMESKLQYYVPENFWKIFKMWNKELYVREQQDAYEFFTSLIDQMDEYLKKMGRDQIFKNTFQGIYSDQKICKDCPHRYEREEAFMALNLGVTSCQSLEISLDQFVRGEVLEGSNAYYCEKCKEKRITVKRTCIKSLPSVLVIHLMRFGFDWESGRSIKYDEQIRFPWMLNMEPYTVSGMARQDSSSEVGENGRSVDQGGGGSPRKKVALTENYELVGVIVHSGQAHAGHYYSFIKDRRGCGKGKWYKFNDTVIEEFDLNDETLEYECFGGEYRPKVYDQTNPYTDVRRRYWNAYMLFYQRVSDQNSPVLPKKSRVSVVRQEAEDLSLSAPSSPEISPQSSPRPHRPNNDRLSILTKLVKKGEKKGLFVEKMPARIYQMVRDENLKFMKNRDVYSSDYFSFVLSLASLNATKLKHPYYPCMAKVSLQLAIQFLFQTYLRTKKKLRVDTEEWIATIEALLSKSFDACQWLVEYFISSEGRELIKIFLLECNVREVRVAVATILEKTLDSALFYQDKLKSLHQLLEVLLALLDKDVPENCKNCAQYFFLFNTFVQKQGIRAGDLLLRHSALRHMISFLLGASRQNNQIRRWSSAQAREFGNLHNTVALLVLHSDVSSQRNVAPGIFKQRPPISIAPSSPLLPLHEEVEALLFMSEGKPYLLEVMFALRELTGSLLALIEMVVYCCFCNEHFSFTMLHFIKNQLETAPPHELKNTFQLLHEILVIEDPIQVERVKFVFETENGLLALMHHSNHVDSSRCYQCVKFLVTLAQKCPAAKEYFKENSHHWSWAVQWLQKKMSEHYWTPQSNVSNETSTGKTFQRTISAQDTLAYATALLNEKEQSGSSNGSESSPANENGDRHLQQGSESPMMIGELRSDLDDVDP
- test protocol: log2 ratio of Biotin-Ahx-Ub-VS probe labelling (fragment/DMSO); higher = less target engagement (more negative = stronger competition), active = hit call of the paper (q ≤ 0.05, log2 ratio ≤ -1)
- assay conditions: compound concentration: 200 uM; treatment time: 3 h
Could you label it 1 if measured log2 ratio of Biotin-Ahx-Ub-VS probe labelling is -0.4 or higher, and -1 otherwise?

{"compound": "CN(Cc1nc2ccccc2[nH]1)C(=O)CCl.Cl", "category": -1}
{"compound": "O=C(CCl)NCC(=O)N1CCCC1", "category": 1}

--- query ---
Incoming: Is reported log2 ratio of Biotin-Ahx-Ub-VS probe labelling greater than or equal to -0.4 here: `O=C(CCl)N1CCCN(C(=O)c2ccc(Cl)cc2)CC1`
Outgoing: -1
